Tested on: tissue autofluorescence in FFPE mouse multi-tissue arrays
protocol_summary: Quinone compounds tested for tissue autofluorescence quenching, FFPE mouse multi-tissue arrays
experimental_setup: incubated for 30 min; compared with 4×SSC untreated control slide
attribute_measured: Autofluorescence quenching effect

// solved cases for Autofluorescence quenching effect follow
Prompt line: Entry Oc1ccc(O)cc1 [Hydroquinone] has what Autofluorescence quenching effect?
Response line: Yes

Prompt line: Entry O=C1C=CC(=O)C(Cl)=C1 has what Autofluorescence quenching effect?
Response line: Yes

Prompt line: Entry CC1=CC(=O)C=C(C)C1=O has what Autofluorescence quenching effect?
Response line: No

Prompt line: Entry COC1=CC(=O)C=C(OC)C1=O has what Autofluorescence quenching effect?
Response line: No

Now for the molecule whose Autofluorescence quenching effect we want.
Prompt line: Entry O=C1C=C(Cl)C(=O)C(Cl)=C1 has what Autofluorescence quenching effect?
Response line: Yes

Values were extracted from patent US20240209423A1.
